Numbers sourced from paper PMC5739597.

Test system: EA.hy926
EXPERIMENTAL PROTOCOL: Human endothelial cell (EA.hy926) viability assay, CCK-8
Assay type: cell-based
CONDITION DESCRIPTION: CCK-8, 24 h treatment; read-out: Inhibition of human endothelial cell viability, EA.hy926 IC50
READOUT TYPE: IC50 (µM)
Number in µM, nothing else.

Please report the recorded IC50 for `O=C(Nc1ccc(-c2ccc3c(=O)[nH]cnc3c2)cc1)Nc1ccccc1F` . 8.64

###

EXPERIMENTAL SYSTEM: FGFR-4 (Homo sapiens, UniProt P22455)
Sequence (P22455 22-802, species assumed): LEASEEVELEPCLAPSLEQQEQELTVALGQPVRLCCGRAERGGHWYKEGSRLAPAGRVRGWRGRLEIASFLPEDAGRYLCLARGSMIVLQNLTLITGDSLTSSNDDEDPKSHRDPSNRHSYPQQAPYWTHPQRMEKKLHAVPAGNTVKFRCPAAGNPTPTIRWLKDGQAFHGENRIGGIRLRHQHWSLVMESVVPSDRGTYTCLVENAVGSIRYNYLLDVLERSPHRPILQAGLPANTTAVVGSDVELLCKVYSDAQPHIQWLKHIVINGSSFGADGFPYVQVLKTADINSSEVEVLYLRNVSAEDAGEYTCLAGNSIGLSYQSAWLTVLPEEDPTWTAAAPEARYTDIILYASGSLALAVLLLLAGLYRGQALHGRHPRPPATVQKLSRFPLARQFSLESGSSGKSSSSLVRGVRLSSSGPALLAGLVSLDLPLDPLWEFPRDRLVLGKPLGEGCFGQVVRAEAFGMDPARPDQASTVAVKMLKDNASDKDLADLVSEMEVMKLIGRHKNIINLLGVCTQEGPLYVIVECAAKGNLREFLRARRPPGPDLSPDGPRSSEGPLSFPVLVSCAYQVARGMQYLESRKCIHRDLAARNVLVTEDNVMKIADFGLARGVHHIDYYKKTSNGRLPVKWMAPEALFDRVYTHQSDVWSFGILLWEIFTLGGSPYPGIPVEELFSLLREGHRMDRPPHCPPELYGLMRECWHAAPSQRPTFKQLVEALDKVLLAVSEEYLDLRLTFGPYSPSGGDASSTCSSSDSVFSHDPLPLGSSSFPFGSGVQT
pIC50: −log10 of the molar value.
READOUT TYPE: pIC50

Please report the recorded pIC50 for `O=C(Nc1ccc(-c2ccc3c(=O)[nH]cnc3c2)cc1)Nc1ccc(F)c(F)c1` . < 6.30

###

Test system: human cervical cancer cell line (HeLa)
EXPERIMENTAL PROTOCOL: Anti-proliferative MTT assay, HeLa
Format: cell-based
CONDITION DESCRIPTION: 48 h
READOUT TYPE: IC50 (µM)
Number in µM, nothing else.

Please report the recorded IC50 for `O=C(Nc1ccc(-c2ccc3c(=O)[nH]cnc3c2)cc1)Nc1ccc(F)c(F)c1` . 5.56

###

EXPERIMENTAL SYSTEM: UniProt Q02763
Sequence (Q02763 23-1124): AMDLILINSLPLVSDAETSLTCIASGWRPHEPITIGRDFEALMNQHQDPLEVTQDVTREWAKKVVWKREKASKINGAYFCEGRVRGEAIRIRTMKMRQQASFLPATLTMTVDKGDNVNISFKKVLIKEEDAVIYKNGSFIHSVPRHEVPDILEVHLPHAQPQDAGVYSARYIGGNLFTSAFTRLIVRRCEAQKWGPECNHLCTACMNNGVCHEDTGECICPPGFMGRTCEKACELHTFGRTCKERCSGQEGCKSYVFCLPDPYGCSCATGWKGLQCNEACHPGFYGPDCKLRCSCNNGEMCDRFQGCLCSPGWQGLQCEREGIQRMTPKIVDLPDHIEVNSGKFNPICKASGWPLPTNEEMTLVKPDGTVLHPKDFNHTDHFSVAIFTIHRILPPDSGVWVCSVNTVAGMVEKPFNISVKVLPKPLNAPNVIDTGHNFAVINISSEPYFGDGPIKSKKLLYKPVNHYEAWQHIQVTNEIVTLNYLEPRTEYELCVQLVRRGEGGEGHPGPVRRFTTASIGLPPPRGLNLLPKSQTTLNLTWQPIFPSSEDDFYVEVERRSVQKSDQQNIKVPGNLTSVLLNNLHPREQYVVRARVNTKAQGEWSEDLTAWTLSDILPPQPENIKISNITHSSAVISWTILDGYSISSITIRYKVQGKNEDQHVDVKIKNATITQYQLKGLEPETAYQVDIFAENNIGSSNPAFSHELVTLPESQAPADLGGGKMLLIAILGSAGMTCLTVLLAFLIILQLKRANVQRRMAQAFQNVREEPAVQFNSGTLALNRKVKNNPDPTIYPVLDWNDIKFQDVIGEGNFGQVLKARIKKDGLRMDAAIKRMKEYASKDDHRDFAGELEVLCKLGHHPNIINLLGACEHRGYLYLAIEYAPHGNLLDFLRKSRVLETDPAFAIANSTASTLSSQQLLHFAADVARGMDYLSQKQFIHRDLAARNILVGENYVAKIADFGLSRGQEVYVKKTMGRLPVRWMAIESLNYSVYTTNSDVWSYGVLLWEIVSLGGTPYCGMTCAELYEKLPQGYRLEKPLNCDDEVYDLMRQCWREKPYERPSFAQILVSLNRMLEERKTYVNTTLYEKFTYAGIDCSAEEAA
EXPERIMENTAL PROTOCOL: ADP-Glo in vitro RTK inhibition assay, TIE-2
Type: biochemical
CONDITION DESCRIPTION: ATP 50 μM
Measured pIC50, listed per entry.
Interpret pIC50 as the negative base-10 log of the concentration measured in mol/L.

Known pIC50 results, listed for orientation:
# STRUCTURE STRING, pIC50
rows = [
    ("O=C(Nc1ccc(-c2ccc3c(=O)[nH]cnc3c2)cc1)Nc1ccc(C(F)(F)F)cc1", 7.28),
    ("O=C(Nc1ccc(-c2ccc3c(=O)[nH]cnc3c2)cc1)Nc1ccc(F)c(F)c1", 8.05),
    ("FC(F)(F)Oc1ccc(NC(=S)Nc2ccc(-c3cccnc3)cc2)c(Br)c1", 7.70),
    ("FC(F)(F)c1cc(Br)cc(NC(=S)Nc2ccc(-c3cccnc3)cc2)c1", 7.59),
    ("S=C(Nc1ccc(-c2cccnc2)cc1)Nc1ccc(Cl)cc1Cl", 7.18),
    ("O=C(Nc1ccc(-c2ccc3c(=O)[nH]cnc3c2)cc1)Nc1cccc(C(F)(F)F)c1", 7.15),
]

Please report the recorded pIC50 for `O=C(Nc1ccc(-c2ccc3c(=O)[nH]cnc3c2)cc1)Nc1cccc(Cl)c1` . 7.08
